Numbers sourced from patent US12729377B2.

- System: ANGPTL3 gene
- experimentSummary: Example 7: serum triglycerides in mice
- Format: in vivo, C57bl/6 mice
- Set-up: key: ratio: (level/pre-treatment day -1 level) ÷ mean of D5W control group
- testSettings: Day 29, 0.5 mg/kg single SC injection on day 1, n=3
In the oligonucleotide strings, read from the 5' end, every base follows the letter of its sugar. An asterisk marks phosphorothioate; unmarked linkages are phosphodiester. Other units and linkages are bracketed, terminal groups are in braces. A string of capitals states the bases alone. {NAG37} = tridentate N-acetyl-galactosamine targeting ligand, structure (NAG37)s; [invAb] = inverted abasic unit; m = 2'-O-methyl; f = 2'-fluoro
Parameter Avg TG, normalized to pre-treatment and control: see the listing below.
I'd appreciate a reply containing only the number, no unit.

Recorded Avg TG, normalized to pre-treatment and control, per entry:
>>> resultnumber("AD05775: RNAi agent duplex: antisense AM07235-AS, sense AM07608-SS (antisense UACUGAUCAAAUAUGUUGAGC; sense GCUCAACAUNUUUGAUCAGUA; (NAG37)s GalNAc ligand; RNAi agent antisense strand modified sequence; RNAi agent sense strand modified sequence; modified_base 10 n = 2′-O-methyl-2-aminoadenosine-3′-phosphate)")
0.885
>>> resultnumber("AD05418: RNAi agent duplex: antisense AM07159-AS, sense AM07158-SS (antisense mU*fU*mU*fGmAfAmUfUmAfAmUfGmUfCmCfAmUfGmGfG*mU; sense {NAG37}*[invAb]*mAmCmCmCmAmUmGmGfAfCfAmUmUmAmAmUmUmCmAmAmA*[invAb])")
0.586
>>> resultnumber("AD05488: RNAi agent duplex: antisense AM07235-AS, sense AM07234-SS (antisense mU*fA*mC*fUmGfAmUfCmAfAmAfUmAfUmGfUmUfGmAfG*mC; sense {NAG37}*[invAb]*mGmCmUmCmAmAmCmAfUfAfUmUmUmGmAmUmCmAmGmUmA*[invAb])")
0.877
>>> resultnumber("AD05777: RNAi agent duplex: antisense AM07235-AS, sense AM07610-SS (antisense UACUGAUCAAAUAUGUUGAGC; sense GCUCAACNUNUUUGAUCAGUA; (NAG37)s GalNAc ligand; RNAi agent antisense strand modified sequence; RNAi agent sense strand modified sequence; modified_base 8, 10 n = 2′-O-methyl-2-aminoadenosine-3′-phosphate)")
0.648

Next item in the queue.
Q: Supply recorded Avg TG, normalized to pre-treatment and control for AD05308: RNAi agent duplex: antisense AM07003-AS, sense AM07002-SS (chain 1 mU*fG*mU*fUmGfAmAfUmUfAmAfUmGfUmCfCmAfUmGfG*mA; chain 2 {NAG37}*[invAb]*mUmCmCmAmUmGmGmAfCfAfUmUmAmAmUmUmCmAmAmCmA*[invAb]) here.
Result: 0.705

====

// Avg ANGPTL3 (Average ANGPTL3 Protein Normalized to Pre-Treatment and Control) lookup, one value per entry
- Test system: ANGPTL3 protein
- experimentSummary: Example 4: serum ANGPTL3 protein by ELISA in mice
- Assay type: in vivo, C57bl/6 mice
- testSettings: Day 22; 1.0 mg/kg single subcutaneous dose on day 1; serum; female C57bl/6 mice
In the oligonucleotide strings, read from the 5' end, every base follows the letter of its sugar. An asterisk marks phosphorothioate; unmarked linkages are phosphodiester. Other units and linkages are bracketed, terminal groups are in braces. A string of capitals states the bases alone. {NAG37} = tridentate N-acetyl-galactosamine targeting ligand, structure (NAG37)s; [invAb] = inverted abasic unit; m = 2'-O-methyl; f = 2'-fluoro
Output spec: single numeric token, no unit.

Use these answered entries as a reference point.
>>> resultnumber("AD05418: RNAi agent duplex: antisense AM07159-AS, sense AM07158-SS (antisense mU*fU*mU*fGmAfAmUfUmAfAmUfGmUfCmCfAmUfGmGfG*mU; sense {NAG37}*[invAb]*mAmCmCmCmAmUmGmGfAfCfAmUmUmAmAmUmUmCmAmAmA*[invAb])")
0.387
>>> resultnumber("AD05488: RNAi agent duplex: antisense AM07235-AS, sense AM07234-SS (antisense mU*fA*mC*fUmGfAmUfCmAfAmAfUmAfUmGfUmUfGmAfG*mC; sense {NAG37}*[invAb]*mGmCmUmCmAmAmCmAfUfAfUmUmUmGmAmUmCmAmGmUmA*[invAb])")
0.092

Q: // Input: AD05308: RNAi agent duplex: antisense AM07003-AS, sense AM07002-SS (chain 1 mU*fG*mU*fUmGfAmAfUmUfAmAfUmGfUmCfCmAfUmGfG*mA; chain 2 {NAG37}*[invAb]*mUmCmCmAmUmGmGmAfCfAfUmUmAmAmUmUmCmAmAmCmA*[invAb]) . Output its Avg ANGPTL3 (Average ANGPTL3 Protein Normalized to Pre-Treatment and Control) only.
Result: 0.252

Q: Please give the documented Avg ANGPTL3 (Average ANGPTL3 Protein Normalized to Pre-Treatment and Control) of AD05487: RNAi agent duplex: antisense AM07233-AS, sense AM07232-SS (antisense mU*fA*mC*fUmGfAmUfCmAfAmAfUmAfUmGfUmUfGmAfG*mU; sense {NAG37}*[invAb]*mAmCmUmCmAmAmCmAfUfAfUmUmUmGmAmUmCmAmGmUmA*[invAb])
Result: 0.138

====

Listed here are substances together with their documented Avg HDL, normalized to pre-treatment and control.
- Test system: ANGPTL3 gene
- experimentSummary: Example 4: serum HDL in mice
- Format: in vivo, C57bl/6 mice
- testSettings: Day 8, 1.0 mg/kg single SC injection on day 1, n=3
In the oligonucleotide strings, read from the 5' end, every base follows the letter of its sugar. An asterisk marks phosphorothioate; unmarked linkages are phosphodiester. Other units and linkages are bracketed, terminal groups are in braces. A string of capitals states the bases alone. {NAG37} = tridentate N-acetyl-galactosamine targeting ligand, structure (NAG37)s; [invAb] = inverted abasic unit; m = 2'-O-methyl; f = 2'-fluoro

Some solved entries appear below for comparison.
>>> result("AD05488: RNAi agent duplex: antisense AM07235-AS, sense AM07234-SS (antisense mU*fA*mC*fUmGfAmUfCmAfAmAfUmAfUmGfUmUfGmAfG*mC; sense {NAG37}*[invAb]*mGmCmUmCmAmAmCmAfUfAfUmUmUmGmAmUmCmAmGmUmA*[invAb])")
0.839
>>> result("AD05418: RNAi agent duplex: antisense AM07159-AS, sense AM07158-SS (antisense mU*fU*mU*fGmAfAmUfUmAfAmUfGmUfCmCfAmUfGmGfG*mU; sense {NAG37}*[invAb]*mAmCmCmCmAmUmGmGfAfCfAmUmUmAmAmUmUmCmAmAmA*[invAb])")
0.828
>>> result("AD05487: RNAi agent duplex: antisense AM07233-AS, sense AM07232-SS (antisense mU*fA*mC*fUmGfAmUfCmAfAmAfUmAfUmGfUmUfGmAfG*mU; sense {NAG37}*[invAb]*mAmCmUmCmAmAmCmAfUfAfUmUmUmGmAmUmCmAmGmUmA*[invAb])")
0.716

Now let's try a different one.
Q: Give me measured Avg HDL, normalized to pre-treatment and control, please, for this substance: AD05308: RNAi agent duplex: antisense AM07003-AS, sense AM07002-SS (chain 1 mU*fG*mU*fUmGfAmAfUmUfAmAfUmGfUmCfCmAfUmGfG*mA; chain 2 {NAG37}*[invAb]*mUmCmCmAmUmGmGmAfCfAfUmUmAmAmUmUmCmAmAmCmA*[invAb])
Result: 0.904

====

The substances listed here are annotated with their Avg Total Chol, normalized to pre-treatment and control.
- System: ANGPTL3 gene
- experimentSummary: Example 4: serum total cholesterol in mice
- Assay type: in vivo, C57bl/6 mice
- testSettings: Day 29, 1.0 mg/kg single SC injection on day 1, n=3
In the oligonucleotide strings, read from the 5' end, every base follows the letter of its sugar. An asterisk marks phosphorothioate; unmarked linkages are phosphodiester. Other units and linkages are bracketed, terminal groups are in braces. A string of capitals states the bases alone. {NAG37} = tridentate N-acetyl-galactosamine targeting ligand, structure (NAG37)s; [invAb] = inverted abasic unit; m = 2'-O-methyl; f = 2'-fluoro

Sample answers from the record:
>>> result("AD05488: RNAi agent duplex: antisense AM07235-AS, sense AM07234-SS (antisense mU*fA*mC*fUmGfAmUfCmAfAmAfUmAfUmGfUmUfGmAfG*mC; sense {NAG37}*[invAb]*mGmCmUmCmAmAmCmAfUfAfUmUmUmGmAmUmCmAmGmUmA*[invAb])")
0.683
>>> result("AD05308: RNAi agent duplex: antisense AM07003-AS, sense AM07002-SS (chain 1 mU*fG*mU*fUmGfAmAfUmUfAmAfUmGfUmCfCmAfUmGfG*mA; chain 2 {NAG37}*[invAb]*mUmCmCmAmUmGmGmAfCfAfUmUmAmAmUmUmCmAmAmCmA*[invAb])")
0.819
>>> result("AD05418: RNAi agent duplex: antisense AM07159-AS, sense AM07158-SS (antisense mU*fU*mU*fGmAfAmUfUmAfAmUfGmUfCmCfAmUfGmGfG*mU; sense {NAG37}*[invAb]*mAmCmCmCmAmUmGmGfAfCfAmUmUmAmAmUmUmCmAmAmA*[invAb])")
0.853

// below: Avg Total Chol, normalized to pre-treatment and control requested for another substance
Q: Query Avg Total Chol, normalized to pre-treatment and control for AD05487: RNAi agent duplex: antisense AM07233-AS, sense AM07232-SS (antisense mU*fA*mC*fUmGfAmUfCmAfAmAfUmAfUmGfUmUfGmAfG*mU; sense {NAG37}*[invAb]*mAmCmUmCmAmAmCmAfUfAfUmUmUmGmAmUmCmAmGmUmA*[invAb])
Result: 0.560
